# PROCEDURE DETAILS: chemical genetic growth profiling, strain panel (AID 1159580);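 also: tested at 20 µM; growth read once vehicle control cultures reached saturation at 30 °C; 1 = growth at the plate median or of vehicle wells; lower values mean less growth of the strain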
# REPORTED CONDITIONS: S. cerevisiae deletion strains, growth OD, locus YER016W, strain bim1, active compounds read low
The whole screen tested about 5,500 compounds, of which about 2,000 (36%) were called active. Another 18% or so got no clear call; they are omitted. The list shows a part of the results.
PARAMETER: normalized growth

>  <COMPOUND>
C[C@@H]1CCC2[C@](C)(CO)[C@@H](O)CC[C@]2(C)[C@@]12CC[C@@](CO)(CCO)O2 (stereo partly drawn)

>  <PARAMETER>
normalized growth

>  <ASSAY RESULT>
0.981

$$$$
>  <COMPOUND>
Cc1ncc(CO)c(CO)c1O

>  <PARAMETER>
normalized growth

>  <ASSAY RESULT>
1

$$$$
>  <COMPOUND>
CC[C@@]1(O)C(=O)OCc2c1cc1n(c2=O)Cc2cc3cc(O)ccc3nc2-1

>  <PARAMETER>
normalized growth

>  <ASSAY RESULT>
1.02

$$$$
>  <COMPOUND>
CN(C)CC[C@H](c1ccc(Cl)cc1)c1ccccn1

>  <PARAMETER>
normalized growth

>  <ASSAY RESULT>
0.99

$$$$
>  <COMPOUND>
COc1nc(NC(C)C)nc(NC(C)C)n1

>  <PARAMETER>
normalized growth

>  <ASSAY RESULT>
1.01

$$$$
>  <COMPOUND>
CC(C)Nc1nc(Cl)nc(NC(C)C)n1

>  <PARAMETER>
normalized growth

>  <ASSAY RESULT>
1

$$$$
>  <COMPOUND>
COc1ccccc1N1CCN(CCCNc2cc(=O)n(C)c(=O)n2C)CC1

>  <PARAMETER>
normalized growth

>  <ASSAY RESULT>
1.02

$$$$
>  <COMPOUND>
CCc1ccc2c(O)c3c(cc2c1C(=O)OC)C(=O)c1c(O)ccc(O)c1C3=O

>  <PARAMETER>
normalized growth

>  <ASSAY RESULT>
0.986

$$$$

====

# PROCEDURE DETAILS: chemical genetic growth profiling, strain panel (AID 1159580);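 also: tested at 20 µM; growth read once vehicle control cultures reached saturation at 30 °C; 1 = growth at the plate median or of vehicle wells; lower values mean less growth of the strain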
# REPORTED CONDITIONS: S. cerevisiae deletion strains, growth OD, locus YOR001W, strain rrp6, active compounds read low
The campaign covered roughly 5,500 compounds. About 2,000 (36%) were called active. Not shown: some 18% with an inconclusive outcome. This is one part of the list.
PARAMETER: normalized growth

>  <MOLECULE>
COc1ccc(-c2cc(=O)c3c(O)c(OC)c(OC)c(OC)c3o2)cc1OC

>  <ASSAY RESULT>
0.94

$$$$
>  <MOLECULE>
CC12CCC(=O)C=C1CCc1ccccc12 (stereo unspecified)

>  <ASSAY RESULT>
0.994

$$$$
>  <MOLECULE>
CC1(C)S[C@@H]2[C@H](NC(=O)C(C(=O)O)c3ccccc3)C(=O)N2[C@H]1C(=O)O (stereo partly specified)

>  <ASSAY RESULT>
1

$$$$
>  <MOLECULE>
COc1ccc(-c2cc(=O)c3c(O)cc(O)c(-c4cc(-c5cc(=O)c6c(O)cc(O)cc6o5)ccc4OC)c3o2)cc1

>  <ASSAY RESULT>
0.993

$$$$
>  <MOLECULE>
C[C@@H]1CCC2[C@](C)(CO)[C@@H](O)CC[C@]2(C)[C@@]12CC[C@@](CO)(CCO)O2 (stereo partly specified)

>  <ASSAY RESULT>
0.956

$$$$
>  <MOLECULE>
COc1cc(O)c2c(=O)cc(-c3ccc(OC)c(-c4c(O)cc(O)c5c(=O)cc(-c6ccc(O)cc6)oc45)c3)oc2c1

>  <ASSAY RESULT>
0.987

$$$$

====

normalized growth overview
# PROCEDURE DETAILS: chemical genetic growth profiling, strain panel (AID 1159580);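 also: tested at 20 µM; growth read once vehicle control cultures reached saturation at 30 °C; 1 = growth at the plate median or of vehicle wells; lower values mean less growth of the strain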
# REPORTED CONDITIONS: S. cerevisiae deletion strains, growth OD, locus YPR111W, strain DBF20, active compounds read low
Hit rate of the full screen: of about 5,500 compounds, about 2,000 (36%) were called active. Another 18% or so got no clear call; they are omitted. The list shows a part of the results.

>  <SAMPLE SMILES>
CN1/C(=C/C=C/c2ccc3ccccc3[n+]2C)C=Cc2ccccc21

>  <normalized growth>
0.902

$$$$
>  <SAMPLE SMILES>
CO/N=C1/CC(C)(C)Cc2c(-c3ccn(C(=O)Nc4cccc(Cl)c4)n3)sc(SC)c21

>  <normalized growth>
0.962

$$$$
>  <SAMPLE SMILES>
O=C(OCc1ccccc1Br)c1cc([N+](=O)[O-])cc([N+](=O)[O-])c1

>  <normalized growth>
0.973

$$$$
>  <SAMPLE SMILES>
O=S(=O)(c1cc(Cl)ccc1Cl)N1CCc2ccccc2C1

>  <normalized growth>
0.978

$$$$
>  <SAMPLE SMILES>
O=C(Nc1ccc(SC(F)(F)F)cc1)Nc1ccc(Oc2cccc(C(F)(F)F)c2)nc1

>  <normalized growth>
0.972

$$$$
>  <SAMPLE SMILES>
Cc1cc(-c2onc(C)c2C(=O)Sc2ccccc2)no1

>  <normalized growth>
0.97

$$$$
>  <SAMPLE SMILES>
O=C1/C(=C/c2c[nH]c3ccccc23)CSc2ccccc21

>  <normalized growth>
0.979

$$$$

====

# PROCEDURE DETAILS: chemical genetic growth profiling, strain panel (AID 1159580);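 also: tested at 20 µM; growth read once vehicle control cultures reached saturation at 30 °C; 1 = growth at the plate median or of vehicle wells; lower values mean less growth of the strain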
# REPORTED CONDITIONS: S. cerevisiae deletion strains, growth OD, locus YLR262C, strain YPT6 (second series), active compounds read low
Screen size: about 5,500 compounds; about 2,000 (36%) were called active. About 18% were inconclusive and are not listed. This is one part of the list.
PARAMETER: normalized growth

>  <MOLECULE>
C=CCSSSCC=C

>  <PARAMETER>
normalized growth

>  <ASSAY RESULT>
0.995 (inactive)

$$$$
>  <MOLECULE>
COC1=CC(C)[C@@H]2C[C@H]3OC(=O)C[C@H]4C(C)=C(OC)C(=O)C([C@@]34C)[C@@]2(C)C1=O (stereo not given in full)

>  <PARAMETER>
normalized growth

>  <ASSAY RESULT>
0.991 (inactive)

$$$$
>  <MOLECULE>
C[C@H]1[C@H](C)CC[C@]2(C(=O)O)CC[C@]3(C)C(=CCC4[C@@]5(C)C[C@@H](O)[C@H](O)[C@@](C)(CO)C5CC[C@]43C)[C@H]12 (stereo not given in full)

>  <PARAMETER>
normalized growth

>  <ASSAY RESULT>
0.975 (inactive)

$$$$
>  <MOLECULE>
O=C(O)C1=CC(=C(c2ccc(O)c(C(=O)O)c2)c2ccc(O)c(C(=O)O)c2)C=CC1=O

>  <PARAMETER>
normalized growth

>  <ASSAY RESULT>
0.973 (inactive)

$$$$
>  <MOLECULE>
COc1cccc2c1CCC1=CC(=O)CC[C@@]12C

>  <PARAMETER>
normalized growth

>  <ASSAY RESULT>
1.05 (inactive)

$$$$
>  <MOLECULE>
COC(=O)C[C@H]1C(C)(C)[C@@H](O)[C@@H]2CC3=C4CC(O)O[C@@H](c5ccoc5)[C@]4(C)CCC3[C@@]1(C)C2=O (stereo not given in full)

>  <PARAMETER>
normalized growth

>  <ASSAY RESULT>
1.01 (inactive)

$$$$
>  <MOLECULE>
O=C(CCCN1CCN(c2ccccn2)CC1)c1ccc(F)cc1

>  <PARAMETER>
normalized growth

>  <ASSAY RESULT>
0.821 (active)

$$$$
>  <MOLECULE>
CCC(=O)NCC[C@@H]1CCc2ccc3c(c21)CCO3

>  <PARAMETER>
normalized growth

>  <ASSAY RESULT>
1.01 (inactive)

$$$$
>  <MOLECULE>
CC(=O)Oc1ccccc1C(=O)Oc1ccccc1C(=O)O

>  <PARAMETER>
normalized growth

>  <ASSAY RESULT>
1 (inactive)

$$$$
>  <MOLECULE>
CC12CCC(=O)C=C1CCc1ccccc12 (stereo not given)

>  <PARAMETER>
normalized growth

>  <ASSAY RESULT>
1.07 (inactive)

$$$$
>  <MOLECULE>
CC1Cc2ccccc2N1NC(=O)c1ccc(Cl)c(S(N)(=O)=O)c1 (stereo not given)

>  <PARAMETER>
normalized growth

>  <ASSAY RESULT>
0.996 (inactive)

$$$$
>  <MOLECULE>
CC1(C)S[C@@H]2[C@H](NC(=O)C(C(=O)O)c3ccccc3)C(=O)N2[C@H]1C(=O)O (stereo not given in full)

>  <PARAMETER>
normalized growth

>  <ASSAY RESULT>
1 (inactive)

$$$$
>  <MOLECULE>
COc1ccc(-c2cc(=O)c3c(OC)c(OC)c(OC)c(OC)c3o2)cc1OC

>  <PARAMETER>
normalized growth

>  <ASSAY RESULT>
1.04 (inactive)

$$$$
>  <MOLECULE>
CC1CCCC(C)N1NC(=O)c1ccc(Cl)c(S(N)(=O)=O)c1 (stereo not given)

>  <PARAMETER>
normalized growth

>  <ASSAY RESULT>
1.01 (inactive)

$$$$
>  <MOLECULE>
COc1ccccc1N1CCN(CCCNc2cc(=O)n(C)c(=O)n2C)CC1

>  <PARAMETER>
normalized growth

>  <ASSAY RESULT>
1.03 (inactive)

$$$$
>  <MOLECULE>
Cc1ccccc1N1C(=O)c2cc(S(N)(=O)=O)c(Cl)cc2NC1C (stereo not given)

>  <PARAMETER>
normalized growth

>  <ASSAY RESULT>
0.96 (inactive)

$$$$
>  <MOLECULE>
COC(=O)[C@H]1[C@H]2C[C@H]3c4[nH]c5cc(OC)ccc5c4CCN3C[C@H]2C[C@@H](OC(=O)c2cc(OC)c(OC)c(OC)c2)[C@@H]1OC

>  <PARAMETER>
normalized growth

>  <ASSAY RESULT>
1 (inactive)

$$$$
>  <MOLECULE>
CC1(C)S[C@@H]2C(N3C(=O)[C@@H](c4ccccc4)NC3(C)C)C(=O)N2[C@H]1C(=O)O (stereo not given in full)

>  <PARAMETER>
normalized growth

>  <ASSAY RESULT>
1.11 (inactive)

$$$$
>  <MOLECULE>
C[C@H]1O[C@@H](O[C@H]2[C@@H](O)C[C@H](O[C@H]3[C@@H](O)C[C@H](O[C@H]4CC[C@]5(C)C6CC[C@]7(C)[C@@H](C8=CC(=O)OC8)CC[C@]7(O)C6CC[C@@H]5C4)O[C@@H]3C)O[C@@H]2C)C[C@H](O)[C@@H]1O (stereo not given in full)

>  <PARAMETER>
normalized growth

>  <ASSAY RESULT>
0.997 (inactive)

$$$$
>  <MOLECULE>
COC1=CC(=O)C=C(OC)C1=O

>  <PARAMETER>
normalized growth

>  <ASSAY RESULT>
0.946 (inactive)

$$$$
>  <MOLECULE>
OC1(c2ccc(Cl)c(C(F)(F)F)c2)CCN(CCCC(c2ccc(F)cc2)c2ccc(F)cc2)CC1

>  <PARAMETER>
normalized growth

>  <ASSAY RESULT>
0.0931 (active)

$$$$
>  <MOLECULE>
C[C@@H]1O[C@@H](O[C@H]2CC[C@]3(C=O)C4CC[C@]5(C)[C@@H](C6=CC(=O)OC6)CC[C@]5(O)C4CC[C@]3(O)C2)[C@H](O)[C@H](O)[C@H]1O (stereo not given in full)

>  <PARAMETER>
normalized growth

>  <ASSAY RESULT>
1.01 (inactive)

$$$$
>  <MOLECULE>
O=C1CC2(CCCC2)CC(=O)N1CCCCN1CCN(c2ncccn2)CC1

>  <PARAMETER>
normalized growth

>  <ASSAY RESULT>
0.958 (inactive)

$$$$
>  <MOLECULE>
COC(=O)N/N=C\c1c[n+]([O-])c2ccccc2[n+]1[O-]

>  <PARAMETER>
normalized growth

>  <ASSAY RESULT>
1 (inactive)

$$$$
>  <MOLECULE>
COc1ccc(-c2cc(=O)c3c(O)c(OC)c(OC)c(OC)c3o2)cc1OC

>  <PARAMETER>
normalized growth

>  <ASSAY RESULT>
0.985 (inactive)

$$$$
>  <MOLECULE>
CC1(C)S[C@@H]2[C@H](NC(=O)[C@@H](N)c3ccc(O)cc3)C(=O)N2[C@H]1C(=O)O

>  <PARAMETER>
normalized growth

>  <ASSAY RESULT>
0.975 (inactive)

$$$$
>  <MOLECULE>
CC1=C2C(O)C(=O)OC3CC4C(C)(C)C(=O)C=C[C@]4(C)C(CC1)[C@]23C (stereo not given in full)

>  <PARAMETER>
normalized growth

>  <ASSAY RESULT>
1.06 (inactive)

$$$$
>  <MOLECULE>
COc1ccc(-c2cc(=O)c3c(O)c(OC)c(O[C@H]4O[C@H](CO[C@@H]5O[C@@H](C)[C@H](O)[C@@H](O)[C@H]5O)[C@@H](O)[C@H](O)[C@H]4O)cc3o2)cc1

>  <PARAMETER>
normalized growth

>  <ASSAY RESULT>
1.03 (inactive)

$$$$
>  <MOLECULE>
COC1CC(OC2CCC3(C)C(CCC4C3CCC3(C)C(C5=CC(=O)OC5)C(OC(C)=O)CC43O)C2)OC(C)C1O (stereo not given)

>  <PARAMETER>
normalized growth

>  <ASSAY RESULT>
1.04 (inactive)

$$$$
>  <MOLECULE>
CC(=O)OCC(=O)[C@@]1(O)CCC2C3C[C@H](C)C4=CC(=O)C=CC4(C)C3[C@@H](O)CC21C (stereo not given in full)

>  <PARAMETER>
normalized growth

>  <ASSAY RESULT>
1.03 (inactive)

$$$$
